Values compiled from ChEMBL document CHEMBL4477270.

- TEST SYSTEM: UniProtKB Q8WXB1
- Sequence (Q8WXB1 whole entry): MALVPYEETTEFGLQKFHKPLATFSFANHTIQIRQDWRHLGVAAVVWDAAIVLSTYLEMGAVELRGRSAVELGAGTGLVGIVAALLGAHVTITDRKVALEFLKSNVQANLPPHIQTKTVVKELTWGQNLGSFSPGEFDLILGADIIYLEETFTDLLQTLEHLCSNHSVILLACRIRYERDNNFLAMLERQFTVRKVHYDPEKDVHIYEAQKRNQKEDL
- TEST: Inhibition of METTL21A (unknown origin) using biotin-labeled histone substrate assessed as residual activity at 50 uM in presence of [3H-Me]SAM by scintillation proximity assay relative to control

MOLECULE: O=C(c1cccc(Br)c1)N1CCC2CNCC2C1 (stereo unspecified)
Activity: 100%
//
MOLECULE: O=C(c1cccc(Br)c1)N1CCCC2(CCCCN2)C1 (stereo unspecified)
Activity: 97%
//
MOLECULE: CN1CCCC2(CCCN(C(=O)c3cccc(Br)c3)C2)C1 (stereo unspecified)
Activity: 100%
//
MOLECULE: O=C(c1cccc(Br)c1)N1C[C@@H]2CC3CCCCN3[C@@H]2C1 (stereo partly specified)
Activity: 91%
//
MOLECULE: O=C(c1cccc(Br)c1)N1C[C@@H]2CCN[C@@H]2C1
Activity: 96%
//
MOLECULE: O=C(c1cccc(Br)c1)N1CCC[C@@H]2CNC[C@@H]21
Activity: 102%
